# protein stability index per entry
B1: CCDC70 (parent)
chain: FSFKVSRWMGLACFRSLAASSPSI

- Variants of: B1
- assay explanation: protein stability index of a GFP-peptide fusion (GPS, HEK-293T) (PSI 1-6); higher = more stable;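 also: lentivirally expressed fusions sorted by FACS into six bins by GFP to DsRed ratio, PSI derived from sequencing read proportions per bin multiplied by bin number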
- assay conditions: c terminus: a fixed tail appended
assay metric: protein stability index

biopolymer sequence	assay metric	assay value
FSFKVSRWMGLACFRSLAASNPSI [S21N]	protein stability index	2.04
FSFKVSRWMGLACFRSAAASSPSI [L17A]	protein stability index	1.7
FSFKVSRWLGLACFRSLAASSPSI [M9L]	protein stability index	4.57
FSFKVSRWMGLKCFRSLAASSPSI [A12K]	protein stability index	3.62
ISFKVSRWMGLACFRSLAASSPSI [F1I]	protein stability index	1.68
FSFKVSRWMGLACFRELAASSPSI [S16E]	protein stability index	4.34
FSFKVSRWMGLACFRSLAASSPSD [I24D]	protein stability index	2.72
DSFKVSRWMGLACFRSLAASSPSI [F1D]	protein stability index	1.25
FSFKVSRWMGLAKFRSLAASSPSI [C13K]	protein stability index	1.46
FSFKVSRWMGLACRRSLAASSPSI [F14R]	protein stability index	4.52
FSFYVSRWMGLACFRSLAASSPSI [K4Y]	protein stability index	3.24
FSFKVSRWMGLAFFRSLAASSPSI [C13F]	protein stability index	3.96
